Biological target: Prostaglandin F2-alpha receptor (Homo sapiens, UniProt P43088)
Sequence (P43088 whole entry): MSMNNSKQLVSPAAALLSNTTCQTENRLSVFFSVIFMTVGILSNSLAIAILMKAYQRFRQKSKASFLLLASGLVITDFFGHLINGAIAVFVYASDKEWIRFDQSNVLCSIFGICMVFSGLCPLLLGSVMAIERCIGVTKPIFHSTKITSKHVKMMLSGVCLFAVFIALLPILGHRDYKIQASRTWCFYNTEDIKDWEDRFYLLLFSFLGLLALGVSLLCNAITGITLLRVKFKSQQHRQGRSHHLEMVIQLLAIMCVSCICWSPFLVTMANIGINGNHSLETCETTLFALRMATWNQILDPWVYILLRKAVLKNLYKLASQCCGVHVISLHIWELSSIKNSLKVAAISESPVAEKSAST
Assay: Compound was evaluated for its secondary binding affinity to human FP receptors by using Aequorin luminescence-based functional calcium assay
measure: pKi
Numbers only, as −log10 of the molar value.

# example entries with known answers
Lookup: Report pKi for CC(C)(Cc1ccccc1)C(=O)NS(=O)(=O)c1ccccc1-c1ccc(CN2C(=O)c3ccccc3CCc3ccccc32)cc1 please.
Found: 5.89

Lookup: Report pKi for CO[C@](C(=O)NS(=O)(=O)c1ccccc1-c1ccc(CN2C(=O)c3ccccc3CCc3ccccc32)cc1)(c1ccccc1)C(F)(F)F please.
Found: 5.42

Lookup: Report pKi for CN(CCc1ccccc1)C(=O)NS(=O)(=O)c1ccccc1-c1ccc(CN2C(=O)c3ccccc3CCc3ccccc32)cc1 please.
Found: 5.21

Lookup: Report pKi for CC(C(=O)NS(=O)(=O)c1ccccc1-c1ccc(CN2C(=O)c3ccccc3CCc3ccccc32)cc1)c1ccccc1 (stereo not given) please.
Found: 5.28

Next:
Lookup: Report pKi for CC(C)(C(=O)NS(=O)(=O)c1ccccc1-c1ccc(CN2C(=O)c3ccccc3CCc3ccccc32)cc1)c1ccccc1 please.
Found: 5.30

====

Give Ki for every item shown.
Sequence of the target: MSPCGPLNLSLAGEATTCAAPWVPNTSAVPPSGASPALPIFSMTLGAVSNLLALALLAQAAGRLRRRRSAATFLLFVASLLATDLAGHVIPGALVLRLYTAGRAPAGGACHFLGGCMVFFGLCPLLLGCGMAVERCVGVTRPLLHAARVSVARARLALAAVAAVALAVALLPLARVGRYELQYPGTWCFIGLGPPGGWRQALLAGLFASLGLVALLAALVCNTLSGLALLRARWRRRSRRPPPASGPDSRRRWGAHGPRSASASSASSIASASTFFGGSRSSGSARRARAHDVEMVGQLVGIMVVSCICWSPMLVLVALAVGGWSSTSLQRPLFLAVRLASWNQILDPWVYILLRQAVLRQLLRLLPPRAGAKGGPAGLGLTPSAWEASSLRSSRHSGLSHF
Answers are plain numbers, in nM.

# example entries with known answers
Lookup: Report Ki for CC(C)(C)NC(=O)NS(=O)(=O)c1ccccc1-c1ccc(CN2C(=O)c3ccccc3CCc3ccccc32)cc1 please.
Found: 770

Lookup: Report Ki for O=C(CCc1ccccc1)NS(=O)(=O)c1ccccc1-c1ccc(CN2C(=O)c3ccccc3CCc3ccccc32)cc1 please.
Found: 47

Lookup: Report Ki for O=C(NCCc1cccs1)NS(=O)(=O)c1ccccc1-c1ccc(CN2C(=O)c3ccccc3Oc3ccccc32)cc1 please.
Found: 10800

Each compound below has a recorded value; state its Ki.
1. O=C(Cc1ccccc1)NS(=O)(=O)c1ccccc1-c1ccc(CN2C(=O)c3ccccc3CCc3ccccc32)cc1
2. O=C(NCCc1cccs1)NS(=O)(=O)c1ccccc1-c1ccc(Cn2c(=O)c3ccccc3c3ccccc32)cc1
3. CN(C(=O)NCCc1ccccc1)S(=O)(=O)c1ccccc1-c1ccc(CN2C(=O)c3ccccc3CCc3ccccc32)cc1
4. CO[C@](C(=O)NS(=O)(=O)c1ccccc1-c1ccc(CN2C(=O)c3ccccc3CCc3ccccc32)cc1)(c1ccccc1)C(F)(F)F

Found:
1. 57
2. 1200
3. 360
4. 12

Each compound below has a recorded value; state its Ki.
1. O=C(NCCc1cccs1)NS(=O)(=O)c1ccccc1-c1ccc(CN2Cc3ccccc3CCc3ccccc32)cc1
2. O=C(NS(=O)(=O)c1ccccc1-c1ccc(CN2C(=O)c3ccccc3CCc3ccccc32)cc1)OCc1ccccc1
3. CC(C)(Cc1ccccc1)C(=O)NS(=O)(=O)c1ccccc1-c1ccc(CN2C(=O)c3ccccc3CCc3ccccc32)cc1
4. CN(CCc1ccccc1)C(=O)NS(=O)(=O)c1ccccc1-c1ccc(CN2C(=O)c3ccccc3CCc3ccccc32)cc1
5. O=C(NCCCc1ccccc1)NS(=O)(=O)c1ccccc1-c1ccc(CN2C(=O)c3ccccc3CCc3ccccc32)cc1
6. O=C(Nc1ccccc1)NS(=O)(=O)c1ccccc1-c1ccc(CN2C(=O)c3ccccc3CCc3ccccc32)cc1

Found:
1: 2800; 2: 150; 3: 18; 4: 17; 5: 400; 6: 21000

====

Biological target: UniProt:P43115
Sequence (P43115 whole entry): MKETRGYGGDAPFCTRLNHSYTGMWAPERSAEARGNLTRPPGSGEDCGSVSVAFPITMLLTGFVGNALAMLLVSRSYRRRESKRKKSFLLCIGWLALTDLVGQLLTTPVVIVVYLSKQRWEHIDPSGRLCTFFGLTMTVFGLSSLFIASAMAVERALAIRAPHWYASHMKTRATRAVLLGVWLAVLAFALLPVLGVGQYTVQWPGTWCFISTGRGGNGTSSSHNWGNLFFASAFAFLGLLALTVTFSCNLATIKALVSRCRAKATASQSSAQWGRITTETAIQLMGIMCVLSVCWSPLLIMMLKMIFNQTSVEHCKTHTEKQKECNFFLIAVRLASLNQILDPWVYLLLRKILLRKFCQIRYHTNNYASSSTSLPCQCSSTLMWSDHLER
measure: log10 of Ki (log10 of the value in µM)
Log10 applied to Ki; unit prior to transform: µM.

# example entries with known answers
Lookup: Report log10 of Ki for O=C(CCc1ccccc1)NS(=O)(=O)c1ccccc1-c1ccc(CN2C(=O)c3ccccc3CCc3ccccc32)cc1 please.
Found: 0.56

Lookup: Report log10 of Ki for O=C(NS(=O)(=O)c1ccccc1-c1ccc(CN2C(=O)c3ccccc3CCc3ccccc32)cc1)OCc1ccccc1 please.
Found: 0.38

Lookup: Report log10 of Ki for C[C@H](NC(=O)NS(=O)(=O)c1ccccc1-c1ccc(CN2C(=O)c3ccccc3CCc3ccccc32)cc1)c1ccccc1 please.
Found: 0.67

Lookup: Report log10 of Ki for O=C(NCc1ccccc1)NS(=O)(=O)c1ccccc1-c1ccc(CN2C(=O)c3ccccc3CCc3ccccc32)cc1 please.
Found: 1.11

Lookup: Report log10 of Ki for O=C(NCCc1ccccc1)NS(=O)(=O)c1ccccc1-c1ccc(CN2C(=O)c3ccccc3CCc3ccccc32)cc1 please.
Found: 1.71

New cases:
Lookup: Report log10 of Ki for CC(C(=O)NS(=O)(=O)c1ccccc1-c1ccc(CN2C(=O)c3ccccc3CCc3ccccc32)cc1)c1ccccc1 (stereo unspecified) please.
Found: 0.70

====

Biological target: Prostacyclin receptor (Homo sapiens)
Sequence (P43119 whole entry): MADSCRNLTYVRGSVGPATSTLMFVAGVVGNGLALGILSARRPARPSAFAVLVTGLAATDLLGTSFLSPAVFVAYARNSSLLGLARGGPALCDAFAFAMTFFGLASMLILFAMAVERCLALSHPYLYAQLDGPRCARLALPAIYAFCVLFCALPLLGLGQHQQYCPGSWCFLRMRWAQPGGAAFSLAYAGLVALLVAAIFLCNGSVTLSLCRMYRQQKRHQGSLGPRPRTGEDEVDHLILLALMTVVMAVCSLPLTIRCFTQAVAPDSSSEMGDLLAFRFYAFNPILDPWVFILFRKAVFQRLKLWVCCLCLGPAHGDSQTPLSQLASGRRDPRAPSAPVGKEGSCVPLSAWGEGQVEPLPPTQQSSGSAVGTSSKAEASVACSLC
Experiment: Compound was evaluated for its secondary binding affinity to human IP receptors by using Aequorin luminescence-based functional calcium assay
measure: Ki (µM)
Give bare numbers, in µM.

# example entries with known answers
Lookup: Report Ki for CC(C)(C(=O)NS(=O)(=O)c1ccccc1-c1ccc(CN2C(=O)c3ccccc3CCc3ccccc32)cc1)c1ccccc1 please.
Found: 21

Lookup: Report Ki for CC(C(=O)NS(=O)(=O)c1ccccc1-c1ccc(CN2C(=O)c3ccccc3CCc3ccccc32)cc1)c1ccccc1 (stereo not given) please.
Found: 28.3

Each compound below has a recorded value; state its Ki.
1. CO[C@](C(=O)NS(=O)(=O)c1ccccc1-c1ccc(CN2C(=O)c3ccccc3CCc3ccccc32)cc1)(c1ccccc1)C(F)(F)F
2. CN(CCc1ccccc1)C(=O)NS(=O)(=O)c1ccccc1-c1ccc(CN2C(=O)c3ccccc3CCc3ccccc32)cc1
3. CC(C)(Cc1ccccc1)C(=O)NS(=O)(=O)c1ccccc1-c1ccc(CN2C(=O)c3ccccc3CCc3ccccc32)cc1

Found:
[13, 52, 21]

====

Target: Prostaglandin E2 receptor EP2 subtype (Homo sapiens)
Sequence (P43116 whole entry): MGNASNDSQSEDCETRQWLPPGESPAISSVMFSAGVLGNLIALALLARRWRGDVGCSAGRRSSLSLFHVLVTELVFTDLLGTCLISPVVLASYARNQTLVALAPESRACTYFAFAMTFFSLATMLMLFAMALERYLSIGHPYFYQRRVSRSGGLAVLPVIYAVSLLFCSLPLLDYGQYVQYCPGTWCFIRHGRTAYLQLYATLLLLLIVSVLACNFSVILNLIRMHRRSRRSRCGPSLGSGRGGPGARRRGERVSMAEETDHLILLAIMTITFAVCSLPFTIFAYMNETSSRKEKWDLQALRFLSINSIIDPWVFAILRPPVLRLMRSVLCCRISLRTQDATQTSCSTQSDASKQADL
Give pKi for every item shown.
One number for each entry, as −log10 of the molar value.

Lookup: Report pKi for CO[C@@](C(=O)NS(=O)(=O)c1ccccc1-c1ccc(CN2C(=O)c3ccccc3CCc3ccccc32)cc1)(c1ccccc1)C(F)(F)F please.
Found: 4.89

Next:
Lookup: Report pKi for C[C@H](NC(=O)NS(=O)(=O)c1ccccc1-c1ccc(CN2C(=O)c3ccccc3CCc3ccccc32)cc1)c1ccccc1 please.
Found: 4.68

====

Biological target: Prostaglandin D2 receptor (Homo sapiens)
Sequence (Q13258 whole entry): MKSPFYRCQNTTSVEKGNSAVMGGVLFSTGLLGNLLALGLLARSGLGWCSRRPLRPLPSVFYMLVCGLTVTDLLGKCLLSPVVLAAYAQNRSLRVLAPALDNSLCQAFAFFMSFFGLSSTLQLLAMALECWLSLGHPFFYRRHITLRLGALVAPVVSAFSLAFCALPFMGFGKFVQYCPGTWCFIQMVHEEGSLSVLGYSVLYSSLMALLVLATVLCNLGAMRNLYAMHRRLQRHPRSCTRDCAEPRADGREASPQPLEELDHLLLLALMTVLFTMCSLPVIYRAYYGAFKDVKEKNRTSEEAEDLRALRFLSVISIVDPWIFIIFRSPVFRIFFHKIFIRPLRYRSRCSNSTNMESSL
Assay: Compound was evaluated for its secondary binding affinity to human DP receptors by using Aequorin luminescence-based functional calcium assay
measure: Ki (µM)
Numbers only, in µM.

# example entries with known answers
Lookup: Report Ki for CN(CCc1ccccc1)C(=O)NS(=O)(=O)c1ccccc1-c1ccc(CN2C(=O)c3ccccc3CCc3ccccc32)cc1 please.
Found: 2.87

Lookup: Report Ki for CC(C)(C(=O)NS(=O)(=O)c1ccccc1-c1ccc(CN2C(=O)c3ccccc3CCc3ccccc32)cc1)c1ccccc1 please.
Found: 2.4

Lookup: Report Ki for CC(C(=O)NS(=O)(=O)c1ccccc1-c1ccc(CN2C(=O)c3ccccc3CCc3ccccc32)cc1)c1ccccc1 (stereo not given) please.
Found: 2.8

Lookup: Report Ki for CO[C@](C(=O)NS(=O)(=O)c1ccccc1-c1ccc(CN2C(=O)c3ccccc3CCc3ccccc32)cc1)(c1ccccc1)C(F)(F)F please.
Found: 2

Next:
Lookup: Report Ki for CC(C)(Cc1ccccc1)C(=O)NS(=O)(=O)c1ccccc1-c1ccc(CN2C(=O)c3ccccc3CCc3ccccc32)cc1 please.
Found: 4

====

Test system Prostaglandin E2 receptor EP4 subtype (Homo sapiens), Ki listed for each of the compounds.
One number for each entry, in µM.

Lookup: Report Ki for C[C@H](NC(=O)NS(=O)(=O)c1ccccc1-c1ccc(CN2C(=O)c3ccccc3CCc3ccccc32)cc1)c1ccccc1 please.
Found: 6.9

Lookup: Report Ki for CN(CCc1ccccc1)C(=O)NS(=O)(=O)c1ccccc1-c1ccc(CN2C(=O)c3ccccc3CCc3ccccc32)cc1 please.
Found: 1.1

Next:
Lookup: Report Ki for CO[C@](C(=O)NS(=O)(=O)c1ccccc1-c1ccc(CN2C(=O)c3ccccc3CCc3ccccc32)cc1)(c1ccccc1)C(F)(F)F please.
Found: 4
